Tested on: Trypanosoma cruzi amastigotes (Tulahuen strain expressing Lac-Z) cultured in 3T3 fibroblast cells
protocol.text: microbe, parasite or virus in culture
Assay type: cell-based
stated.conditions: Trypanosoma cruzi, TULAHUEN, Fibroblast, T. cruzi amastigotes in 3T3 fibroblast cells; read-out: T cruzi EC50
Please provide measured pEC50 for the entries that follow.
Give bare numbers, as −log10 of the molar value.

Cc1nc(C)c(C(=O)Nc2ccc(F)c(-c3cn4cc(-c5ccncc5F)cnc4n3)c2)o1; 7.30
CC(C)CNc1cnc2nc(-c3cc(NC(=O)N4CCCC4)ccc3F)cn2c1; 6.53
Cc1nc(C)c(C(=O)Nc2ccc(F)c(-c3cn4cc(N5CCOCC5)cnc4n3)c2)o1; 6.80
O=C(Nc1ccc(Cl)c(-c2cn3cc(C4=CCNCC4)cnc3n2)c1)N1CCCC1; 5.70
COC(=O)c1cnc2nc(-c3cc(NC(=O)c4oc(C)nc4C)ccc3F)cn2c1; 6.27

Each molecule below has a recorded value; state its pEC50.
1. Cc1nc(C)c(C(=O)Nc2ccc(F)c(-c3cn4cc(C#CCCO)cnc4n3)c2)o1
2. Cc1nc(C)c(C(=O)Nc2ccc(F)c(-c3cn4cc(C5CCN(C(=O)CO)CC5)cnc4n3)c2)o1
3. Cc1ncc(C(=O)Nc2ccc(F)c(-c3cn4cc(C(C)C)cnc4n3)c2)o1

Reply |
1: 6.05; 2: 5.09; 3: 7.85

Provide pEC50 for all items below, preserving their order.
1. O=C(Nc1ccc(F)c(-c2cn3cc(-c4cccnc4)cnc3n2)c1)N1CCC1
2. O=C(Nc1ccc(F)c(-c2cn3cc(-c4ccccn4)cnc3n2)c1)N1CC[C@@H](F)C1
3. Cc1nc(C)c(C(=O)Nc2ccc(F)c(-c3cn4cc(-c5cc(F)ccn5)cnc4n3)c2)o1

Reply |
1. 6.57
2. 7.85
3. 7.80

Please give pEC50 for each item listed below.
1. CC(C)c1cnc2nc(-c3cc(NC(=O)N4CC(F)C4)ccc3F)cn2c1
2. Cc1nc(C)c(C(=O)Nc2ccc(F)c(-c3cn4cc(C5CCOCC5)cnc4n3)c2)o1
3. Nc1cnc2nc(-c3cc(NC(=O)c4ccc(F)o4)ccc3Cl)cn2c1

Reply |
1: 7.36; 2: 6.77; 3: 5.63

----------
Kindly state pEC50 for each of the entries shown.
Test system: Leishmania donovani axenic amastigote parasites
protocol.text: Leishmania donovani axenic amastigote proliferation assay (Cell TiterGlo luminescence, 2 day incubation)
Format: cell-based
stated.conditions: Leishmania donovani, L. donovani axenic amastigotes; read-out: L. donovani amastigotes EC50
One number for each entry, as −log10 of the molar value.

CCCC(=O)OCN(C(=O)OC(C)C)c1cnc2nc(-c3cc(NC(=O)c4oc(C)nc4C)ccc3F)cn2c1; 7.20
O=C(Nc1ccc(Cl)c(-c2cn3cc(C4=CCNCC4)cnc3n2)c1)N1CCCC1; 5.74
Cc1nc(C)c(C(=O)Nc2ccc(F)c(-c3cn4cc(N(C)C(=O)OC(C)C)cnc4n3)c2)o1; 6.38
Cc1nc(C)c(C(=O)Nc2ccc(F)c(-c3cn4cc(-c5cccc(N6CCNCC6)n5)cnc4n3)c2)o1; 5.71
O=C(Nc1ccc(F)c(-c2cn3cc(-c4cccnc4)cnc3n2)c1)N1CCC1; 7.03
O=C(Nc1ccc(F)c(-c2cn3cc(C4CC4)cnc3n2)c1)N1CC[C@@H](F)C1; 7.68
CC(C)c1cnc2nc(-c3cc(NC(=O)N4CC(F)(F)C4)ccc3F)cn2c1; 7.52
Cc1nc(C)c(C(=O)Nc2ccc(F)c(-c3cn4cc(-c5ccc(N6CCN(C(C)C)CC6)cc5)cnc4n3)c2)o1; 5.41

For each of the compounds below, state pEC50.
1. Cc1nc(C)c(C(=O)Nc2ccc(F)c(-c3cn4cc(-c5cn[nH]c5)cnc4n3)c2)o1
2. Cc1nc(C)c(C(=O)Nc2ccc(F)c(-c3cn4cc(-c5ccncc5F)cnc4n3)c2)o1
3. O=C(Nc1ccc(F)c(-c2cn3cc(C(F)(F)F)cnc3n2)c1)N1CC(F)C1
4. Cc1nc(C)c(C(=O)Nc2ccc(F)c(-c3cn4cc(-c5ccccc5S(C)(=O)=O)cnc4n3)c2)o1
5. Cc1nc(C)c(C(=O)Nc2ccc(F)c(-c3cn4cc(NC5=NCC(C(F)(F)F)O5)cnc4n3)c2)o1 (stereo not shown)
6. CC(C)(C)OC(=O)Nc1cnc2nc(-c3cc(NC=O)ccc3F)cn2c1
7. Cc1nc(C)c(C(=O)Nc2ccc(F)c(-c3cn4cc(NCC(C)(C)C)cnc4n3)c2)o1
8. Cc1nc(C)c(C(=O)Nc2ccc(F)c(-c3cn4cc(C5=CCN(Cc6ccccc6)CC5)cnc4n3)c2)o1

Reply |
1: 5.83; 2: 7.07; 3: 7.14; 4: 6.47; 5: 5.77; 6: 4.86; 7: 6.48; 8: 6.27

----------
Tested on: Leishmania donovani axenic amastigote parasites
protocol.text: Leishmania donovani axenic amastigote proliferation assay (Cell TiterGlo luminescence, 2 day incubation)
Format: cell-based
stated.conditions: Leishmania donovani, L. donovani axenic amastigotes; read-out: L. donovani amastigotes EC50
Please assign False whenever EC50 is at or above 100 nM, and True whenever it is below.

Ask | Is the reported EC50 for COCCNc1cnc2nc(-c3cc(NC(=O)N4CCCC4)ccc3Cl)cn2c1 strictly below 100 nM?
Reply | False

----------
Test system: L. donovani HU3 strain in mouse peritoneal macrophages
protocol.text: Assay for proliferation of Leishmania parasites in infected mouse peritoneal macrophages (SybrGreen staining, high-content imaging, 5 days)
Format: cell-based, Leishmania donovani
stated.conditions: Leishmania donovani, Peritoneal macrophage, L. donovani in mouse peritoneal macrophages, inhibition of proliferation; read-out: L. donovani Macrophage EC50
quantity: pEC50
Numbers only, as −log10 of the molar value.

Example entries begin here.
CN(CC(F)(F)F)C(=O)Nc1ccc(F)c(-c2cn3cc(C4=CCOCC4)cnc3n2)c1 [Compound 326]; 6.30
CC(C)OC(=O)Nc1ccc(F)c(-c2cn3cc(NC(=O)OC(C)C)cnc3n2)c1 [Compound 302]; 6.23
CC(C)OC(=O)Nc1cnc2nc(-c3cc(NC(=O)N4CC(F)(F)C4)ccc3F)cn2c1 [Compound 289]; 6.49
Cc1ncc(C(=O)Nc2ccc(Cl)c(-c3cn4cc(NC(=O)OC(C)C)cnc4n3)c2)o1 [Compound 47]; 6.66
Cc1nc(C)c(C(=O)Nc2ccc(F)c(-c3cn4cc(NC(=O)OC5(C)CC5)cnc4n3)c2)o1 [Compound 312]; 6.86
CC(C)OC(=O)Nc1cnc2nc(-c3cccc(NC(=O)c4ccco4)c3)cn2c1 [Compound 8]; 5.33

Please give pEC50, item by item, for the list that follows.
1. CCOCC(=O)Nc1cnc2nc(-c3cc(NC(=O)N4CCCC4)ccc3F)cn2c1 [Compound 138]
2. O=C(Nc1ccc(Cl)c(-c2cn3cc(-c4ccccc4)cnc3n2)c1)N1CCCC1 [Compound 29]

Reply |
1: 5.41; 2: 6.82

----------
System: Leishmania donovani axenic amastigote parasites
protocol.text: Leishmania donovani axenic amastigote proliferation assay (Cell TiterGlo luminescence, 2 day incubation)
Format: cell-based
stated.conditions: Leishmania donovani, L. donovani axenic amastigotes; read-out: L. donovani amastigotes EC50
quantity: pEC50
One number for each entry, as −log10 of the molar value.

Fill in pEC50 for each of the 5 compounds listed.
1. Cc1nc(C)c(C(=O)Nc2ccc(F)c(-c3cn4cc(-c5ccncc5)cnc4n3)c2)o1
2. Cc1nc(C)c(C(=O)Nc2ccc(F)c(-c3cn4cc(-c5ncc(F)cc5C)cnc4n3)c2)o1
3. Cc1nc(C)c(C(=O)Nc2ccc(F)c(-c3cn4cc(C5C6CCCC5C6)cnc4n3)c2)o1 (centres unmarked)
4. CC1(O)CN(c2cnc3nc(-c4cc(NC(=O)N5CCCC5)ccc4Cl)cn3c2)C1
5. Cc1nc(C)c(C(=O)Nc2ccc(F)c(-c3cn4cc(C5CCN(C(=O)CO)CC5)cnc4n3)c2)o1

Reply |
7.12
7.51
7.09
5.75
6.35

Ask | Recorded pEC50 of O=C(Nc1ccc(F)c(-c2cn3cc(NC(=O)C(F)(F)F)cnc3n2)c1)N1CCCC1 , please.
Reply | 5.94

----------
Field: pEC50. Provide a value for each of the compounds that follow.
System: L. donovani HU3 strain in mouse peritoneal macrophages
protocol.text: Assay for proliferation of Leishmania parasites in infected mouse peritoneal macrophages (SybrGreen staining, high-content imaging, 5 days)
Format: cell-based, Leishmania donovani
stated.conditions: Leishmania donovani, Peritoneal macrophage, L. donovani in mouse peritoneal macrophages, inhibition of proliferation; read-out: L. donovani Macrophage EC50
Numbers only, as −log10 of the molar value.

As a guide, the following entries are already answered.
CC(C)OC(=O)Nc1cnc2nc(-c3cc(NC(=O)c4ccc(C#N)o4)ccc3F)cn2c1 [Compound 107]; 6.53
Cc1ccccc1-c1cnc2nc(-c3cc(NC(=O)N4CCCC4)ccc3F)cn2c1 [Compound 356]; 6.48
O=C(Nc1ccc(Cl)c(-c2cn3cc(-c4ccc(F)cc4)cnc3n2)c1)N1CCCC1 [Compound 25]; 7.00
Cc1nc(C)c(C(=O)Nc2ccc(F)c(-c3cn4cc(NC(=O)C5CN(C)CCO5)cnc4n3)c2)o1 (stereo not shown) [Compound 152]; 5.62
CC(C)OC(=O)Nc1cnc2nc(-c3cc(NC(=O)CN4CCCC4)ccc3F)cn2c1 [Compound 110]; 5.09
Cc1nc(C)c(C(=O)Nc2ccc(Cl)c(-c3cn4cc(NC(=O)OC(C)C)cnc4n3)c2)o1 [Compound 45]; 6.34
O=C(Nc1ccc(F)c(-c2cn3cc(C(F)(F)F)cnc3n2)c1)N1CC(F)(F)C1 [Compound 300]; 6.40
Cc1nc(C)c(C(=O)Nc2ccc(F)c(-c3cn4cc(NC(=O)OC(C)C)cnc4n3)c2)o1 [Compound 61]; 6.15

Please supply pEC50 for each of the following items, keeping them in order.
1. Cc1nc(C)c(C(=O)Nc2ccc(F)c(-c3cn4cc(C5=CCCO5)cnc4n3)c2)o1 [Compound 371]
2. Cc1nc(C)c(C(=O)Nc2ccc(F)c(-c3cn4cc(NC(=O)C5(C)CC(F)(F)C5)cnc4n3)c2)o1 [Compound 118]
3. CC(C)OC(=O)Nc1cnc2nc(-c3cccc(NC(=O)c4cnco4)c3)cn2c1 [Compound 203]

Reply |
1. 5.64
2. 5.69
3. 4.86

Need pEC50 for each of these compounds.
1. O=C(Nc1cnc2nc(-c3cc(NC(=O)N4CCCC4)ccc3F)cn2c1)C1COCCO1 (stereo not shown) [Compound 143]
2. CC(C)CNC(=O)Nc1ccc(Cl)c(-c2cn3cc(NC(=O)OC(C)C)cnc3n2)c1 [Compound 263]

Reply |
5.86
5.45

Data provenance is patent US20160045505A1.
